The reported measurements were obtained from PubChem BioAssay (NCATS).

assay: Quantitative High-Throughput drug screen in 47 multiple myeloma cell lines against the NCATS MIPE library collection: Karpas25_ECACC cell viability assay (AID 1918968; note: nearly all actives have a fitted effect of over 35% in size); conditions: Karpas25 myeloma viability, CellTiter-Glo ATP, 48 h; series mostly up to 45.8 µM
Inconclusive results are not listed. Calls of active or inactive are those of the source. Calls come from the whole dose curve; as a rule, active = well fitted cell-killing curve with a large enough effect; inconclusive = small, poorly fitted or top-dose-only effect, or effect the other way; inactive = no such curve, though single readings can be large or run the other way.
Select the matching outcome among label 1 (active), label 0 (inactive)

Take a look at these entries with their results.
- Compound: "NC(=O)c1cccc(N)c1"
  Category Label: "label 0"
- Compound: "CC(C)Cn1cnc2c(N)nc3ccccc3c21"
  Category Label: "label 0"
- Compound: "O=C(N[C@H](CO)[C@H](O)c1ccc([N+](=O)[O-])cc1)C(Cl)Cl"
  Category Label: "label 0"
- Compound: "O=C(NCC1CN(c2ccc(N3CCOCC3=O)cc2)C(=O)O1)c1ccc(Cl)s1 (stereo unspecified)"
  Category Label: "label 1"
- Compound: "CCCCc1oc2ccc(NS(C)(=O)=O)cc2c1C(=O)c1ccc(OCCCN(CCCC)CCCC)cc1"
  Category Label: "label 1"

Continue with the next compound.
Test call, this compound: CCOC(=O)[C@H](CCc1ccccc1)N[C@H]1CS[C@H](c2cccs2)CN(CC(=O)O)C1=O
label 1

----------
assay: Quantitative High-Throughput drug screen in 47 multiple myeloma cell lines against the NCATS MIPE library collection: INA6_PLB cell viability assay (AID 1918965; note: nearly all actives have a fitted effect of over 55% in size; note: potency is the fitted concentration of half-maximal effect); settings: INA6 myeloma viability, CellTiter-Glo ATP luminescence, 48 h; series mostly up to 45.8 µM
Inconclusive results are not listed. Activity calls are given as the source filed them. Calls come from the whole dose curve; as a rule, active = well fitted cell-killing curve with a large enough effect; inconclusive = small, poorly fitted or top-dose-only effect, or effect the other way; inactive = no such curve, though single readings can be large or run the other way.
Assay Readout: Potency

A selection of reference data follows.
- Compound: "CC(C)(C#N)c1cc(Cn2cncn2)cc(C(C)(C)C#N)c1"
  Potency: "inactive"
- Compound: "CC(C)(C)C(=O)OCOP(=O)(COCCn1cnc2c(N)ncnc21)OCOC(=O)C(C)(C)C"
  Potency: "0.743 µM (active)"
- Compound: "Nc1nc(=S)c2[nH]cnc2[nH]1"
  Potency: "0.469 µM (active)"
- Compound: "Cc1ccc(S(=O)(=O)N[C@@H](Cc2ccccc2)C(=O)CCl)cc1"
  Potency: "5.9 µM (active)"
- Compound: "CC[C@H](C)C(=O)O[C@H]1C[C@@H](C)C=C2C=C[C@H](C)[C@H](CC[C@@H]3C[C@@H](O)CC(=O)O3)[C@H]21"
  Potency: "18.7 µM (active)"
- Compound: "CS(=O)(=O)c1ccc([C@@H](O)[C@@H](CO)NC(=O)C(Cl)Cl)cc1"
  Potency: "11.8 µM (active)"

Moving on to the next compound.
Item: CCCOc1ccc(C(=O)OCCN(CC)CC)cc1N | Potency: inactive

----------
test: Quantitative High-Throughput drug screen in 47 multiple myeloma cell lines against the NCATS MIPE library collection: Karpas417_ECACC cell viability assay (AID 1918961); conditions: Karpas417 myeloma viability, CellTiter-Glo ATP luminescence, 48 h
Results filed as inconclusive are left out. Active and inactive are the calls of the source. The call rests on the fitted dose curve; in most records, active means well fitted cell-killing curve with a large enough effect; inconclusive means small, poorly fitted or top-dose-only effect, or effect the other way; inactive means no such curve, though single readings can be large or run the other way.
Select the correct class. Options are active, inactive and nothing else.

A selection of reference data follows.
- Compound Structure String: "CC(C)(Sc1cc(C(C)(C)C)c(O)c(C(C)(C)C)c1)Sc1cc(C(C)(C)C)c(O)c(C(C)(C)C)c1"
  Category Label: "inactive"
- Compound Structure String: "COc1cc(NCc2ccc3nc(N)nc(N)c3c2C)cc(OC)c1OC"
  Category Label: "active"

Attention now shifts to the item below.
Which result was noted for this compound in the test: Nc1nc(=S)c2[nH]cnc2[nH]1
inactive

----------
assay: qHTS of pediatric cancer cell lines to identify multiple opportunities for drug repurposing: Primary screen for SK-N-MC cells (AID 1347093); conditions: SK-N-MC viability, CellTiter-Glo luminescence, 48 h; series mostly up to 46 µM
Results filed as inconclusive are left out. The source made the active and inactive calls. The call rests on the fitted dose curve; in most records, active means well fitted cell-killing curve with a large enough effect; inconclusive means small, poorly fitted or top-dose-only effect; inactive means no such curve, though single readings can be large or run the other way.
Pick one: TRUE for active, FALSE for inactive

Would you please look over these solved cases?
- Compound: "Nc1ccc(S(=O)(=O)Nc2ccccn2)cc1"
  Category Label: "FALSE"
- Compound: "N=C(N)c1ccc(OCCCCCOc2ccc(C(=N)N)cc2)cc1"
  Category Label: "TRUE"
- Compound: "O=C(O)c1cc(=O)[nH]c(=O)[nH]1"
  Category Label: "FALSE"

Hey, what did the test say about CCOCC(O)COc1ccc(NC(=O)CC[S+](C)C)cc1 (configuration not stated) ?
FALSE

Which result was noted for this compound in the test: S=P(N1CC1)(N1CC1)N1CC1
TRUE

Hi, do you know how NCCCC(O)(P(=O)(O)O)P(=O)(O)O came out in this test?
FALSE

Look up the recorded call for CCn1cc(C(=O)O)c(=O)c2cc(F)c(N3CCNCC3)nc21 in this test.
FALSE

----------
system: TAB109; assay: qHTS profiling for inhibitors of Plasmodium falciparum proliferation (AID 504749); note: nearly all actives have a fitted effect of over 60% in size; details: P. falciparum in erythrocytes, SYBR Green DNA, 72 h; series mostly up to 28.7 µM
Inconclusive results are not listed. The source made the active and inactive calls. Calls follow the shape of the dose curve; as a rule, active = well fitted inhibition curve with a large enough effect; inconclusive = small, poorly fitted or top-dose-only effect; inactive = flat fitted curve, though single readings scatter.
Result category, one only: active, inactive

- Compound: "NC(N)=NC(N)=NCCc1ccccc1"
  Category Label: "inactive"
- Compound: "C[C@]12C=CC(=O)C=C1CC[C@@H]1[C@@H]2C(=O)C[C@@]2(C)[C@H]1CC[C@]2(O)C(=O)CO"
  Category Label: "inactive"

Name the outcome recorded for Cc1oc(=O)oc1CN1CCN(c2cc3c(cc2F)c(=O)c(C(=O)O)c2n3C(C)S2)CC1 (configuration not stated) in the assay.
active

Query: recorded result category for COc1nc(N)nc2c1ncn2[C@@H]1O[C@H](CO)[C@@H](O)[C@@H]1O in this test
inactive

Please share the test call associated with NCCCC(O)(P(=O)(O)O)P(=O)(O)O .
inactive

Lab log entry: CC(=O)Oc1ccccc1C(=O)Nc1ncc([N+](=O)[O-])s1 — outcome as called in the assay?
inactive

State the result this test recorded for Cn1nnc2c(C(N)=O)ncn2c1=O .
inactive

----------
test: Quantitative High-Throughput drug screen in 47 multiple myeloma cell lines against the NCATS MIPE library collection: OPM2_DSMZ cell viability assay (AID 1919872); conditions: OPM2 myeloma viability, CellTiter-Glo ATP luminescence, 48 h; series mostly up to 45.8 µM; note: nearly all actives have a fitted effect of over 30% in size
Inconclusive results are not listed. Activity calls are given as the source filed them. Calls come from the whole dose curve; as a rule, active = well fitted cell-killing curve with a large enough effect; inconclusive = small, poorly fitted or top-dose-only effect, or effect the other way; inactive = no such curve, though single readings can be large or run the other way.
Please reply with one of these outcomes: YES for active, NO for inactive

Assay result, entry CC1=C(C(=O)O)N2C(=O)[C@@H](NC(=O)C(N)c3ccccc3)[C@H]2SC1 (some centres not stated) — outcome?
NO

Hi team, can someone confirm the assay call for CC(C)C[C@H](NC(=O)[C@H](CCc1ccccc1)NC(=O)CN1CCOCC1)C(=O)N[C@@H](Cc1ccccc1)C(=O)N[C@@H](CC(C)C)C(=O)[C@@]1(C)CO1 ?
YES

// param item: Nc1nc(=S)c2[nH]cnc2[nH]1 ; yields the recorded call
YES

I'd appreciate the recorded outcome for CCCCCCNC(=O)n1cc(F)c(=O)[nH]c1=O from this test.
NO

What call does the record list for CCn1cc(C(=O)O)c(=O)c2cc(F)c(N3CCNCC3)cc21 ?
NO

// outcome(item) with item = S=P(N1CC1)(N1CC1)N1CC1
NO

Please let me know the test result on file for Nc1ccc(S(=O)(=O)Nc2ccccn2)cc1 .
NO

Query: recorded result category for COc1cc2nc(N3CCCN(C)CC3)nc(NC3CCN(Cc4ccccc4)CC3)c2cc1OC in this test
YES

Call for entry CCCN[C@H]1CCc2nc(N)sc2C1 :
NO

Field: outcome | Entry: CC(C)OC(=O)C(C(=O)OC(C)C)=C1SC=CS1
NO

Record lookup: outcome of this test for CCN(CC)CCn1c(=O)c(Cc2ccc(OC)cc2)nc2ccccc21 ?
NO

I'd appreciate the recorded outcome for COC(=O)Nc1nc2ccc(C(=O)c3ccccc3)cc2[nH]1 from this test.
YES

----------
system: HeLa; assay: Primary qHTS to identify gynecologic anti-cancer compounds using libraries of approved drugs and bioactive compounds (AID 1345084); details: Gynecologic cancer cell panel viability, ATPlite luminescence, 48 h; series mostly up to 57.5 µM; note: nearly all actives have a fitted effect of over 55% in size
Inconclusive results are not listed. Calls of active or inactive are those of the source. Calls come from the whole dose curve; as a rule, active = well fitted cell-killing curve with a large enough effect; inconclusive = small, poorly fitted or top-dose-only effect, or effect the other way; inactive = flat fitted curve, though single readings scatter.
Your response should consist of one outcome taken from active, inactive

# example entries with known answers
- Compound: "CCC(=O)O[C@]1(C(=O)CCl)[C@@H](C)C[C@H]2[C@@H]3CCC4=CC(=O)C=C[C@]4(C)[C@@]3(F)[C@@H](O)C[C@@]21C"
  Category Label: "inactive"
- Compound: "CC(C)C1CCC(C(=O)N[C@H](Cc2ccccc2)C(=O)O)CC1 (stereo partly drawn)"
  Category Label: "inactive"
- Compound: "NC(=O)N1c2ccccc2CC(=O)c2ccccc21"
  Category Label: "inactive"
- Compound: "CCOC(=O)[C@H](CCc1ccccc1)N[C@H]1CCc2ccccc2N(CC(=O)O)C1=O"
  Category Label: "inactive"
- Compound: "CN(C)CCc1c[nH]c2ccc(C[C@H]3COC(=O)N3)cc12"
  Category Label: "inactive"

GET /call?item= NNC(=O)c1ccncc1 returns the recorded outcome of this test.
inactive

Which outcome was assigned to CN(Cc1cc(Br)cc(Br)c1N)C1CCCCC1 in this test?
inactive

Record lookup: outcome of this test for CCc1cc(C(N)=S)ccn1 ?
inactive

Give the logged outcome of this assay for the following compound: N=C(N)c1ccc(OCCCCCOc2ccc(C(=N)N)cc2)cc1
inactive

Tell me the recorded outcome of this test for CN(CCOc1ccc(CC2SC(=O)NC2=O)cc1)c1ccccn1 (stereo not drawn) .
inactive

Could you kindly confirm the outcome this assay logged for O=C(NCC1CN(c2ccc(N3CCOCC3=O)cc2)C(=O)O1)c1ccc(Cl)s1 (stereo not drawn) ?
inactive
